Target: Recombinant human MMP-1 enzyme (Homo sapiens, UniProt P03956)
Construct: purchased
Sequence (P03956 100-469): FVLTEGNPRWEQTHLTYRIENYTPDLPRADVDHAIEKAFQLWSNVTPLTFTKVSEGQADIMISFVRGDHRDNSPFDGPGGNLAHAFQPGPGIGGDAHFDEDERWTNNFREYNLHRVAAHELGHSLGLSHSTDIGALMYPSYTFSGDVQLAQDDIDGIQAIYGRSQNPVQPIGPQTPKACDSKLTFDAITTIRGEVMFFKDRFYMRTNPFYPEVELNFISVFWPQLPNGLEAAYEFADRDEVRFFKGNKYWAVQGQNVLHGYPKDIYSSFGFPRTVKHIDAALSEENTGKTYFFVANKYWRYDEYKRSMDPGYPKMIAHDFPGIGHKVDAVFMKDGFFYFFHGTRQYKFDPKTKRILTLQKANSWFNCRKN
Experiment: In vitro inhibition of MMP-1 activity
Type: biochemical
Conditions: summary of Tables 2 and 4
Measured attribute: in vitro MMP-1 inhibition activity, in words

Examples with answers:
O=c1c(O)c(-c2ccc(O)c(O)c2)oc2cc(O)cc(O)c12
strong
COc1cc2ccc(=O)oc2cc1O
strong
COc1cc2ccc(=O)oc2cc1OC
strong
COc1cc(/C=C/C(=O)O)ccc1O
strong

[ask] Consider the molecule O=C(O)c1ccc(O)cc1 [p-hydroxy-benzoic acid] . State its measured in vitro MMP-1 inhibition activity, in words.
[reply] not
